Where these numbers come from: the RNAGym collection of RNA variant scans (doi:10.7554/elife.80360)

B1: CPEB3 Ribozyme (parent)
chain: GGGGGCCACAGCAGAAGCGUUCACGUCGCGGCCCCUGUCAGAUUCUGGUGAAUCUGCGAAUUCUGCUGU

Variants of: B1
Experiment: self-cleavage, relative activity (ratio to wild type); higher = more cleavage; co-transcriptional
Ranges used to classify self-cleavage: bottom range = under 0.2, center range = from 0.2 up to 0.6, top range = 0.6 and over

Answered cases to consult:
# MUTATION CODE, LABEL CLASS
rows = [
    ("U55A C66A", "center range"),
    ("G17A C39U", "center range"),
]

Hello team, could you let me know which band the following variant falls into: C33G A52G
top range

Lab note: which band did U21G U44C land in?
center range

Assign a category based on measured self-cleavage for G11U G28C and give only the class name.
bottom range

Lab note: which band did A16C C18A land in?
bottom range

Bin this entry: G5A G68A
top range

Assign a bin to G30C C45A
center range

Which band does C12A G30A fall in?
center range

Category lookup for the variant U46C U49C
top range

The entry to classify is G48C G68A ; which class holds it?
top range

Band of C12A A15U ?
bottom range

Which of the defined bands does the recorded self-cleavage of `C63U` sit within?
top range

Form: Item = G48C C63A ; Class = ?
top range

Any idea which band U64A G68C is in?
top range

Hello team, could you let me know which band the following variant falls into: A13C U49A
top range

Dear colleague, I would appreciate it if you could identify the bin for G2C U61C and reply at your convenience.
bottom range

Looking at G19U G47U , which class would you pick?
top range

Band of U20C U64G ?
bottom range

Into which bin does this variant go? U21A C45U
top range

For this variant, which bin applies? C63G U64G
center range

# bin lookup: classify A8G C12G by its self-cleavage
bottom range

Would you mind sorting A13G C24A into the appropriate category?
center range

Using the reported self-cleavage, which band applies to C12G C63A ?
center range
